Reported GI50 of drug values are given for each entry in this list.
tested on: UO-31; assay: GI50 of drug in presence of dasatinib; higher = less potent; conditions: treatment: drug + dasatinib (fixed dose, not stated); 5 days

Take a look at these entries with their results.
| MOLECULE | GI50 of drug |
| --- | --- |
| CCS(=O)(=O)N1CC(CC#N)(n2cc(-c3ncnc4[nH]ccc34)cn2)C1 + Cc1nc(Nc2ncc(C(=O)Nc3c(C)cccc3Cl)s2)cc(N2CCN(CCO)CC2)n1 | > 10 µM |
| Cn1cc(-c2ccc3nnc(C(F)(F)c4ccc5ncccc5c4)n3n2)cn1 + Cc1nc(Nc2ncc(C(=O)Nc3c(C)cccc3Cl)s2)cc(N2CCN(CCO)CC2)n1 | > 10 µM |

From here, focus on the item given below.
Lab note: need GI50 of drug for CCCS(=O)(=O)Nc1ccc(F)c(C(=O)c2c[nH]c3ncc(-c4ccc(Cl)cc4)cc23)c1F [Vemurafenib (PLX4032)] + Cc1nc(Nc2ncc(C(=O)Nc3c(C)cccc3Cl)s2)cc(N2CCN(CCO)CC2)n1 on UO-31, anyone have it?
> 10 µM

---

tested on: UO-31; assay: AUC of dose-response viability curve, drug + dasatinib, normalised to DMSO (arbitrary (AUC of normalised viability)); higher = less growth inhibition; conditions: treatment: drug + dasatinib (fixed dose, not stated); 5 days
PARAMETER: AUC of dose-response viability curve
Keep it simple and answer with nothing but the number.

Take a look at these entries with their results.
| COMPOUND | PARAMETER | TEST VALUE |
| --- | --- | --- |
| Cc1c(NC(=O)OC[C@@H]2COCCN2)cn2ncnc(Nc3ccc4c(cnn4Cc4cccc(F)c4)c3)c12.Cl + Cc1nc(Nc2ncc(C(=O)Nc3c(C)cccc3Cl)s2)cc(N2CCN(CCO)CC2)n1 [dasatinib] | AUC of dose-response viability curve | 2.98 |
| Cc1nc(NC(=O)N2CCC[C@H]2C(N)=O)sc1-c1csc(C(C)(C)C)n1 [A66] + Cc1nc(Nc2ncc(C(=O)Nc3c(C)cccc3Cl)s2)cc(N2CCN(CCO)CC2)n1 [dasatinib] | AUC of dose-response viability curve | 3.38 |
| CS(=O)(=O)O.O=C(Nc1cccc(Cl)c1)Nc1ncc(CCNc2ncnc3ccsc23)s1 [SNS-314] + Cc1nc(Nc2ncc(C(=O)Nc3c(C)cccc3Cl)s2)cc(N2CCN(CCO)CC2)n1 [dasatinib] | AUC of dose-response viability curve | 3.06 |
| O=C(NOCC(O)CO)c1cc(Br)c(F)c(F)c1Nc1ccc(I)cc1F (stereo unspecified) + Cc1nc(Nc2ncc(C(=O)Nc3c(C)cccc3Cl)s2)cc(N2CCN(CCO)CC2)n1 [dasatinib] | AUC of dose-response viability curve | 2.59 |
| CNC(=O)c1ccccc1Sc1ccc2c(/C=C/c3ccccn3)n[nH]c2c1 [Axitinib] + Cc1nc(Nc2ncc(C(=O)Nc3c(C)cccc3Cl)s2)cc(N2CCN(CCO)CC2)n1 [dasatinib] | AUC of dose-response viability curve | 3.37 |
| CN1C(=O)C(Cc2c[nH]c3ccccc23)NC1=S (stereo unspecified) [Necrostatin-1] + Cc1nc(Nc2ncc(C(=O)Nc3c(C)cccc3Cl)s2)cc(N2CCN(CCO)CC2)n1 [dasatinib] | AUC of dose-response viability curve | 4.58 |
| O=c1c(O)c(-c2ccc(O)c(O)c2)oc2cc(O)cc(O)c12 [Quercetin (Sophoretin)] + Cc1nc(Nc2ncc(C(=O)Nc3c(C)cccc3Cl)s2)cc(N2CCN(CCO)CC2)n1 [dasatinib] | AUC of dose-response viability curve | 3.51 |
| CN(C)Cc1cccc(N/C(=C2\C(=O)Nc3cc(C(=O)N(C)C)ccc32)c2ccccc2)c1 + Cc1nc(Nc2ncc(C(=O)Nc3c(C)cccc3Cl)s2)cc(N2CCN(CCO)CC2)n1 [dasatinib] | AUC of dose-response viability curve | 3.62 |
| COc1ccc2c(Oc3ccc(NC(=O)c4c(C)n(CC(C)(C)O)n(-c5ccccc5)c4=O)nc3)ccnc2c1 [AMG458] + Cc1nc(Nc2ncc(C(=O)Nc3c(C)cccc3Cl)s2)cc(N2CCN(CCO)CC2)n1 [dasatinib] | AUC of dose-response viability curve | 3.35 |
| CNC(=O)c1c(F)cccc1Nc1nc(Nc2cc3c(cc2OC)CCN3C(=O)CN(C)C)nc2[nH]ccc12 + Cc1nc(Nc2ncc(C(=O)Nc3c(C)cccc3Cl)s2)cc(N2CCN(CCO)CC2)n1 [dasatinib] | AUC of dose-response viability curve | 3.45 |

I have this compound here, CC(C)(C)Cn1c(N)nc2ccc(-c3[nH]c(C(C)(C)C)nc3-c3ccc(F)cc3)nc21.CS(=O)(=O)O.CS(=O)(=O)O + Cc1nc(Nc2ncc(C(=O)Nc3c(C)cccc3Cl)s2)cc(N2CCN(CCO)CC2)n1 [dasatinib] , and I need its recorded AUC of dose-response viability curve.
3.24

I have this compound here, O=C1NC(=O)/C(=C/c2ccc3nccc(-c4ccncc4)c3c2)S1 + Cc1nc(Nc2ncc(C(=O)Nc3c(C)cccc3Cl)s2)cc(N2CCN(CCO)CC2)n1 [dasatinib] , and I need its recorded AUC of dose-response viability curve.
2.17

I have this compound here, O=C(Nc1cc(C(F)(F)F)cc(C(F)(F)F)c1)c1cc(Cl)ccc1O [IMD 0354] + Cc1nc(Nc2ncc(C(=O)Nc3c(C)cccc3Cl)s2)cc(N2CCN(CCO)CC2)n1 [dasatinib] , and I need its recorded AUC of dose-response viability curve.
4.26

I have this compound here, Nc1ncnc2c1c(-c1cccc(OCc3ccccc3)c1)cn2[C@H]1C[C@H](CN2CCCC2)C1 [NVP-ADW742] + Cc1nc(Nc2ncc(C(=O)Nc3c(C)cccc3Cl)s2)cc(N2CCN(CCO)CC2)n1 [dasatinib] , and I need its recorded AUC of dose-response viability curve.
2.57

I have this compound here, COc1ccc(-c2ccc3c(N4CCOC[C@@H]4C)nc(N4CCOC[C@@H]4C)nc3n2)cc1CO [AZD8055] + Cc1nc(Nc2ncc(C(=O)Nc3c(C)cccc3Cl)s2)cc(N2CCN(CCO)CC2)n1 [dasatinib] , and I need its recorded AUC of dose-response viability curve.
1.29

I have this compound here, C#Cc1cccc(Nc2ncnc3cc(OCCOC)c(OCCO)cc23)c1 + Cc1nc(Nc2ncc(C(=O)Nc3c(C)cccc3Cl)s2)cc(N2CCN(CCO)CC2)n1 [dasatinib] , and I need its recorded AUC of dose-response viability curve.
4.6

---

tested on: ACHN; assay: minimum viability across doses, drug alone, relative to DMSO (fraction); higher = less growth inhibition; settings: treatment: drug alone; 5 days
minimum viability across doses less than 0.1 is YES; minimum viability across doses greater than or equal to 0.1 is NO.

| COMPOUND | TARGET ENTITY | CATEGORY |
| --- | --- | --- |
| CC1(COc2ccc3c(c2)ncn3-c2ccc3cccc(N4CCC(N)CC4)c3n2)COC1 | ACHN | YES |
| CC(C)(C)Cn1c(N)nc2ccc(-c3[nH]c(C(C)(C)C)nc3-c3ccc(F)cc3)nc21.CS(=O)(=O)O.CS(=O)(=O)O | ACHN | NO |
| COc1cc2ncnc(Nc3cccc(Br)c3)c2cc1OC.Cl | ACHN | NO |
| CNC(=O)c1cc(Oc2ccc(NC(=O)Nc3ccc(Cl)c(C(F)(F)F)c3)c(F)c2)ccn1 [Regorafenib (BAY 73-4506)] | ACHN | NO |
| CN[C@@H]1C[C@H]2O[C@@](C)([C@@H]1OC)n1c3ccccc3c3c4c(c5c6ccccc6n2c5c31)C(=O)NC4 [Staurosporine] | ACHN | YES |

minimum viability across doses under 0.1? Item: Cc1nc(N)sc1-c1ccnc(Nc2ccc(N3CCOCC3)cc2)n1 [CYC116]
NO

minimum viability across doses under 0.1? Item: `Cc1[nH]c(/C=C2/C(=O)Nc3ccc(S(=O)(=O)N(C)c4cccc(Cl)c4)cc32)c(C)c1C(=O)N1CCN(C)CC1`
NO

minimum viability across doses under 0.1? Item: `COc1cc(Nc2ncc(F)c(Nc3ccc4c(n3)N(COP(=O)([O-])[O-])C(=O)C(C)(C)O4)n2)cc(OC)c1OC.[Na+].[Na+]`
YES

---

test system: SN12C; test: AUC of dose-response viability curve, drug alone (arbitrary (AUC of normalised viability)); higher = less growth inhibition; details: treatment: drug alone; 5 days
PARAMETER: AUC of dose-response viability curve
Keep it simple and answer with nothing but the number.

Take a look at these entries with their results.
| COMPOUND | AUC of dose-response viability curve |
| --- | --- |
| O=C(NOC[C@H](O)CO)c1ccc(F)c(F)c1Nc1ccc(I)cc1F | 2.31 |
| CN(C)CC[C@H](CSc1ccccc1)Nc1ccc(S(=O)(=O)NC(=O)c2ccc(N3CCN(Cc4ccccc4-c4ccc(Cl)cc4)CC3)cc2)cc1[N+](=O)[O-] | 3.25 |

From here, focus on the item given below.
I have this compound here, `CC(=O)Nc1cccc(-n2c(=O)n(C3CC3)c(=O)c3c(Nc4ccc(I)cc4F)n(C)c(=O)c(C)c32)c1` , and I need its recorded AUC of dose-response viability curve.
2.39
